- Tested on: HCC 2998
- protocol_notes: NCI tumour cell line growth inhibition, 48 h
Active and inactive are the calls of the source. No stated cut-off is given here; in the data, active = GI50 up to about 1.1 µM and inactive = higher.
reported_property: GI50

| compound | test_result |
| --- | --- |
| O=S(=O)(CC1=NC2C=CC=CC2N=C1)NCc1ccccc1 (stereo not given) | 0.0156 µM (active) |
| Cn1nc(S(N)(=O)=O)s/c1=N/S(=O)(=O)c1ccc(N)cc1 | > 100 µM (inactive) |

# map each compound to its GI50
1. COc1ccc(C2SC(=N)Nc3c2c(C)nn3C(=O)c2ccc(Cl)cc2)cc1OC (stereo not given)
2. C=C(Br)CNC(=O)Nc1ccc(Cl)c(Cl)c1
3. CN(C)c1ccccc1CC(c1c[nH]c2ccccc12)c1c[nH]c2ccccc12
4. CCc1cc(-c2nsc(=O)o2)c(S(=O)(=O)CC)s1
5. CC(=O)OCC1OC(OC(C)=O)C(Nc2ncc(-c3ccc(C)cc3)s2)C(OC(C)=O)C1OC(C)=O (stereo not given)

-- reply
1. > 10 µM (inactive)
2. 18.5 µM (inactive)
3. 9.46 µM (inactive)
4. 37.2 µM (inactive)
5. 29.7 µM (inactive)
